The reported numbers originate from paper PMC7534389.

melting point values for the compounds below.

Observe how each entry below is paired with its result.
Enquiry: Return value of melting point for input N#C/N=C1\SCCN1C(=O)c1ccc(-c2ccccc2[N+](=O)[O-])o1 , no commentary.
Return: 135 to 136 °C

Enquiry: Return value of melting point for input N#C/N=C1\SCCN1C(=O)c1ccc(-c2ccccc2)o1 , no commentary.
Return: 143 to 144 °C

Enquiry: Return value of melting point for input N#C/N=C1\SCCN1C(=O)c1ccc(-c2ccc(Br)cc2)o1 , no commentary.
Return: 169 to 170 °C

The record that follows has no melting point shown yet.
Enquiry: Return value of melting point for input N#C/N=C1\SCCN1C(=O)c1ccc(-c2ccc(F)cc2)o1 , no commentary.
Return: 129 to 130 °C

---

Reported pIC50, Escherichia coli β-glucuronidase (EcGUS) (Escherichia coli).
Value format note: pIC50 is -log10 of concentration (mol/L); just state the number.

Observe how each entry below is paired with its result.
Enquiry: Return value of pIC50 for input N#C/N=C1\SCCN1C(=O)c1ccc(-c2ccc(F)cc2F)o1 , no commentary.
Return: 4.64

Enquiry: Return value of pIC50 for input N#C/N=C1\SCCN1C(=O)c1ccc(-c2ccc(F)cc2)o1 , no commentary.
Return: 5.14

The record that follows has no pIC50 shown yet.
Enquiry: Return value of pIC50 for input N#C/N=C1\SCCN1C(=O)c1ccc(-c2cccc(Cl)c2)o1 , no commentary.
Return: 5.92

---

- study.system: Escherichia coli β-glucuronidase (EcGUS) (Escherichia coli)
- Sequence (P05804 whole entry): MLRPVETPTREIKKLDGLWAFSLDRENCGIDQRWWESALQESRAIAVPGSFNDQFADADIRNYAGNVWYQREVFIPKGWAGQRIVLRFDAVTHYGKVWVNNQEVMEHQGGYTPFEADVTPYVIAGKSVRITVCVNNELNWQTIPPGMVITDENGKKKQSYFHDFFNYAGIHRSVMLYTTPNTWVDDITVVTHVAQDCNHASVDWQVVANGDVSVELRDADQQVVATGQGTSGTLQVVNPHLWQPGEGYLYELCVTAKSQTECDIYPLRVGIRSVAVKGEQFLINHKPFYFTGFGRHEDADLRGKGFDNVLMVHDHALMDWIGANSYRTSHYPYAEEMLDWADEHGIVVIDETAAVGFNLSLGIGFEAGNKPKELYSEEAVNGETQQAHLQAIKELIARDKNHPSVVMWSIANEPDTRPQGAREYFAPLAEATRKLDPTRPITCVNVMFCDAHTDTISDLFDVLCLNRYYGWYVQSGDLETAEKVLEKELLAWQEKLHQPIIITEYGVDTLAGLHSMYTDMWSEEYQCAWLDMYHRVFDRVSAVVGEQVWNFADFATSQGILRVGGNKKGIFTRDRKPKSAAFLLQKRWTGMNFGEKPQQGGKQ
observation.type: IC50 (µM)
Enter your answer as a number in µM; do not include the unit.

Enquiry: Return value of IC50 for input COc1ccc(-c2ccc(C(=O)N3CCS/C3=N\C#N)o2)cc1 , no commentary.
Return: 18.5

Enquiry: Return value of IC50 for input N#C/N=C1\SCCN1C(=O)c1ccc(-c2ccccc2)o1 , no commentary.
Return: 10.7

Enquiry: Return value of IC50 for input N#C/N=C1\SCCN1C(=O)c1ccc(-c2ccccc2Cl)o1 , no commentary.
Return: 5.7
